Experiment: The drug is tested on Bacteroides xylanisolvens strain: DSM18836 for biotransformation. The drug concentrations were measured before and after a 12-h incubation by liquid-chromatography-coupled mass spectrometry (LC–MS)
Details: 2 µM
experimental readout: Bacterial Biotransformation

Consider the worked cases shown below.
>  <molecule>
CC(N)C12CC3CC(CC(C3)C1)C2 (centres undefined)

>  <experimental value>
Compound NOT metabolized

$$$$
>  <molecule>
Cc1cc(C)cc(OCC2CNC(=O)O2)c1 (centres undefined)

>  <experimental value>
Compound metabolized

$$$$
>  <molecule>
COc1ccc2[nH]c([S+]([O-])Cc3ncc(C)c(OC)c3C)nc2c1 (centres undefined)

>  <experimental value>
Compound metabolized

$$$$
>  <molecule>
CN1CCOC(c2ccccc2)c2ccccc2C1 (centres undefined)

>  <experimental value>
Compound NOT metabolized

$$$$
>  <molecule>
O=C(O[C@H]1C[C@H]2CC[C@@H](C1)[N+]21CCCC1)C(O)(c1ccccc1)c1ccccc1.[Cl-] [TROSPIUM CHLORIDE]

>  <experimental value>
Compound NOT metabolized

$$$$
>  <molecule>
CN1CCc2cccc3c2[C@H]1Cc1ccc(O)c(O)c1-3

>  <experimental value>
Compound NOT metabolized

$$$$
>  <molecule>
CCOc1cc(CC(=O)N[C@@H](CC(C)C)c2ccccc2N2CCCCC2)ccc1C(=O)O [REPAGLINIDE]

>  <experimental value>
Compound metabolized

$$$$
>  <molecule>
N#Cc1ccc(C(c2ccc(C#N)cc2)n2cncn2)cc1

>  <experimental value>
Compound NOT metabolized

$$$$
>  <molecule>
O=C1N=C([O-])NC1(c1ccccc1)c1ccccc1.[Na+] [PHENYTOIN SODIUM]

>  <experimental value>
Compound NOT metabolized

$$$$
>  <molecule>
O=C(O)CCc1nc(-c2ccccc2)c(-c2ccccc2)o1

>  <experimental value>
Compound metabolized

$$$$

Ask: What value of Bacterial Biotransformation has been reported for the following molecule? CN(C)CCC=C1c2ccccc2C=Cc2ccccc21
Reply: Compound NOT metabolized

Ask: What value of Bacterial Biotransformation has been reported for the following molecule? CNS(=O)(=O)Cc1ccc2[nH]cc(CCN(C)C)c2c1.O=C(O)CCC(=O)O [SUMATRIPTAN SUCCINATE]
Reply: Compound NOT metabolized

Ask: What value of Bacterial Biotransformation has been reported for the following molecule? Cc1ccccc1N1C(=O)c2cc(S(N)(=O)=O)c(Cl)cc2NC1C (centres undefined)
Reply: Compound NOT metabolized

---

Assay: The drug is tested on Bacteroides fragilis strain: ATCC43859 for biotransformation. The drug concentrations were measured before and after a 12-h incubation by liquid-chromatography-coupled mass spectrometry (LC–MS)
Settings: 2 µM
experimental readout: Bacterial Biotransformation

>  <molecule>
C#C[C@]1(O)CC[C@H]2[C@@H]3CCC4=Cc5oncc5C[C@]4(C)[C@H]3CC[C@@]21C [DANAZOL]

>  <Bacterial Biotransformation>
Compound metabolized

$$$$
>  <molecule>
CCC(=O)NCC[C@@H]1CCc2ccc3c(c21)CCO3 [RAMELTEON]

>  <Bacterial Biotransformation>
Compound metabolized

$$$$
>  <molecule>
Cc1ccc(-c2cc(C(F)(F)F)nn2-c2ccc(S(N)(=O)=O)cc2)cc1 [CELECOXIB]

>  <Bacterial Biotransformation>
Compound NOT metabolized

$$$$
>  <molecule>
COc1cc2nc(N3CCN(C(=O)C4CCCO4)CC3)nc(N)c2cc1OC (stereo not given) [TERAZOSIN]

>  <Bacterial Biotransformation>
Compound NOT metabolized

$$$$

Then this molecule:
Ask: What value of Bacterial Biotransformation has been reported for the following molecule? C#C[C@]1(O)CC[C@H]2[C@@H]3CCC4=CC(=O)CC[C@@H]4[C@H]3CC[C@@]21CC [LEVONORGESTREL]
Reply: Compound metabolized
